B1: glmS ribozyme (parent)
chain: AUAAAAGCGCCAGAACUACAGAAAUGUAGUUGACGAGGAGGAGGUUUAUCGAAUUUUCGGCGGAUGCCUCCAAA

variants of: B1; assay: self-cleavage kobs at 640 uM GlcN6P; higher = faster cleavage; RNA array; settings: with glucosamine-6-phosphate
This sample holds only a part of the variants without activity.
Assign self-cleavage kobs at 640 uM GlcN6P to each entry below.
Give bare numbers, in s⁻¹.

Please review the following examples before continuing.
U45A U54A :: 0.0204
A53U C70A :: 0.000117
A14G U47C :: 0.00236
A52G U55A C71A :: 7.88e-05
U57G U69G :: 0.000113
G13C U69C :: 7.04e-05
A14U U31C :: 0.000956
A14C U49G U54G C68G :: 7.91e-05
U31A U56C :: 0.00066

Please examine the following record next.
Identify measured self-cleavage kobs at 640 uM GlcN6P associated with A15C A39C
0.000171
